# Tested on: S. pneumoniae
# Protocol details: Checkerboard assay (FIC index);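 further: each agent diluted from 0.03 to 4 times its MIC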
# Format: cell-based, Streptococcus pneumoniae
# Details: antibiotic combined with PEP35; S. pneumoniae-Pen S 71263 (MHB)
# Method: The checkerboard assays were carried out as described by Eliopoulos and Moellering (Chapter 9) in Antibiotic in Laboratory Medicine, Lorian Ed. […] 96-well custom designed microtitre plates contained 100 ul/well of cation adjusted Mueller-Hinton broth (eg. for Enterobacteriaceae) with or without lysed horse blood (2-5% V/V) [eg. for S. pneumoniae] and were inoculated to achieve a final concentration of approximately 5×10^5 CFU/ml and incubated in ambient air for 24 hours prior to reading. […]
Quantity name: Avg ΣFIC (range)

Observe how each entry below is paired with its result.
{"columns": ["Mol", "Measured on", "Result"],
 "data": [
  ["CCCCCCCCCC(=O)N[C@@H](Cc1c[nH]c2ccccc12)C(=O)N[C@H](CC(N)=O)C(=O)N[C@@H](CC(=O)O)C(=O)N[C@@H]1C(=O)NCC(=O)N[C@@H](CCCN)C(=O)N[C@@H](CC(=O)O)C(=O)N[C@H](C)C(=O)N[C@@H](CC(=O)O)C(=O)NCC(=O)N[C@H](CO)C(=O)N[C@@H]([C@H](C)CC(=O)O)C(=O)N[C@@H](CC(=O)c2ccccc2N)C(=O)O[C@@H]1C", "S. pneumoniae", "1.39 (1.03-2.5)"],
  ["Cc1nnc(SCC2=C(C(=O)O)N3C(=O)[C@@H](NC(=O)Cn4cnnn4)[C@H]3SC2)s1", "S. pneumoniae", "0.99 (0.62-1.25)"]
]}

Lookup: In one line, give reported Avg ΣFIC (range) of the entry `CN[C@H](CC(C)C)C(=O)N[C@H]1C(=O)N[C@@H](CC(N)=O)C(=O)N[C@H]2C(=O)N[C@H]3C(=O)N[C@H](C(=O)N[C@H](C(=O)O)c4cc(O)cc(O)c4-c4cc3ccc4O)[C@H](O)c3ccc(c(Cl)c3)Oc3cc2cc(c3O[C@@H]2O[C@H](CO)[C@@H](O)[C@H](O)[C@H]2O[C@H]2C[C@](C)(N)[C@H](O)[C@H](C)O2)Oc2ccc(cc2Cl)[C@H]1O` .
Found: 1.05 (0.75-1.25)

----------
# Tested on: MSSA
# Protocol details: Checkerboard assay (FIC index);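 further: each agent diluted from 0.03 to 4 times its MIC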
# Format: cell-based, Staphylococcus aureus
# Details: antibiotic combined with PEP35; MSSA 79333
# Protocol: Checkerboard assays were carried out as described by Bonapace et al. Diagnostic Microbiology and Infectious Diseases 2002; 44:363-366. In brief, checkerboard assays were performed in 96 well microtitre trays using an 8-by-8 well configuration. […] All peptides were assessed for synergy with β-lactams and vancomycin. […] The FIC of drug A and drug B was calculated as follows, FIC drug A=MIC of drug A in combination/MIC of drug A alone and FIC of drug B=MIC of drug B in combination/MIC of drug B alone. […]
Quantity name: Avg ΣFIC (range)

Observe how each entry below is paired with its result.
{"columns": ["Mol", "Measured on", "Result"],
 "data": [
  ["CCCCCCCCCC(=O)N[C@@H](Cc1c[nH]c2ccccc12)C(=O)N[C@H](CC(N)=O)C(=O)N[C@@H](CC(=O)O)C(=O)N[C@@H]1C(=O)NCC(=O)N[C@@H](CCCN)C(=O)N[C@@H](CC(=O)O)C(=O)N[C@H](C)C(=O)N[C@@H](CC(=O)O)C(=O)NCC(=O)N[C@H](CO)C(=O)N[C@@H]([C@H](C)CC(=O)O)C(=O)N[C@@H](CC(=O)c2ccccc2N)C(=O)O[C@@H]1C", "MSSA", "1.19 (1.03-1.5)"],
  ["CN[C@H](CC(C)C)C(=O)N[C@H]1C(=O)N[C@@H](CC(N)=O)C(=O)N[C@H]2C(=O)N[C@H]3C(=O)N[C@H](C(=O)N[C@H](C(=O)O)c4cc(O)cc(O)c4-c4cc3ccc4O)[C@H](O)c3ccc(c(Cl)c3)Oc3cc2cc(c3O[C@@H]2O[C@H](CO)[C@@H](O)[C@H](O)[C@H]2O[C@H]2C[C@](C)(N)[C@H](O)[C@H](C)O2)Oc2ccc(cc2Cl)[C@H]1O", "MSSA", "1.11 (1.0-1.25)"],
  ["CC(=O)NC[C@H]1CN(c2ccc(N3CCOCC3)c(F)c2)C(=O)O1", "MSSA", "1.05 (0.75-1.25)"],
  ["CN(C)c1cc(NC(=O)CNC(C)(C)C)c(O)c2c1C[C@H]1C[C@H]3[C@H](N(C)C)C(O)=C(C(N)=O)C(=O)[C@@]3(O)C(O)=C1C2=O", "MSSA", "0.99 (0.62-1.5)"]
]}

# context switch: different compound, same Avg ΣFIC (range)
Lookup: Jot down Avg ΣFIC (range) (MSSA) of `C[C@@H](O)[C@H]1C(=O)N2C(C(=O)O)=C(S[C@@H]3CN[C@H](C(=O)N(C)C)C3)[C@H](C)[C@H]12` .
Found: 0.52
